B1: KAT8 regulatory NSL complex subunit 2, residues 28 to 91; numbered along this chain, Q9H9L4 (parent)
chain: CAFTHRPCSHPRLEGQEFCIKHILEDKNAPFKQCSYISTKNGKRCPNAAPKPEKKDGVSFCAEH

Variants of: B1
ASSAY_NOTES: abundance fitness (aPCA) (normalised: wild type 0, dead -1); higher = more abundant; growth selection in yeast, the domain comes from the species named
TEST_CONTEXT: Homo sapiens
Quick reference: abundance fitness of the listed items.
ASSAY_ENDPOINT: abundance fitness

{"columns": ["QUERY_SEQUENCE", "VALUE"],
 "data": [
  ["CAFTHRPCMHPRLEGQEFCIKHILEDKNAPFKQCSYISTKNGKRCPNAAPKPEKKDGVSFCAEH [S9M]", -0.135],
  ["CAFTHRPCSHPRLEGQEFCIKHILEDKNAPFKQCDYISTKNGKRCPNAAPKPEKKDGVSFCAEH [S35D]", -0.057],
  ["CAFTHRPCSHPRLEGQEFCIKHILEDKNAPFKQCSYISTKNGKRWPNAAPKPEKKDGVSFCAEH [C45W]", -0.79],
  ["CAFTHRPCSHPRLEGQEFCIKHILEDKNAPFKQCSYISTKNGKRCPNIAPKPEKKDGVSFCAEH [A48I]", -0.204],
  ["CAFTHRPCSHPRLEGQEFCIKHILEDKNAPFRQCSYISTKNGKRCPNAAPKPEKKDGVSFCAEH [K32R]", -0.041],
  ["CAFTHRPCSHPRLEGQEFCIKHILEDKNAPFKQCSYISTKNGKRCPNAAPKPEKKDGQSFCAEH [V58Q]", 0.019],
  ["CAFTHRPCSHPRLEGQEFCIKHILEDKNAPFKQCSYISTKQGKRCPNAAPKPEKKDGVSFCAEH [N41Q]", -0.098],
  ["CAFTHRPCKHPRLEGQEFCIKHILEDKNAPFKQCSYISTKNGKRCPNAAPKPEKKDGVSFCAEH [S9K]", -0.343],
  ["CAFTHRPCSHPRLEGQEFCIKHILEDKNAPFKQCSYILTKNGKRCPNAAPKPEKKDGVSFCAEH [S38L]", -0.076],
  ["CAFTHRPCSHPRLEGQEFCIKHILEDKNAPFKQCSYISTKNGKRCPNAAPKPEKKDGVSFCSEH [A62S]", -0.055],
  ["CAFTHRPCSHPRLEGQEFCIKHILEDKNAPFKQCSYISTKNGKRCPNAAPKGEKKDGVSFCAEH [P52G]", -0.068],
  ["CAFTHRPKSHPRLEGQEFCIKHILEDKNAPFKQCSYISTKNGKRCPNAAPKPEKKDGVSFCAEH [C8K]", -0.664],
  ["CAFTHRPCSHPRLEGQEFCIKHILEFKNAPFKQCSYISTKNGKRCPNAAPKPEKKDGVSFCAEH [D26F]", -0.245],
  ["CAFTHRPCSHDRLEGQEFCIKHILEDKNAPFKQCSYISTKNGKRCPNAAPKPEKKDGVSFCAEH [P11D]", -0.068],
  ["CAFTHRPCSHPRLEGQEFCFKHILEDKNAPFKQCSYISTKNGKRCPNAAPKPEKKDGVSFCAEH [I20F]", -0.115],
  ["CAFTPRPCSHPRLEGQEFCIKHILEDKNAPFKQCSYISTKNGKRCPNAAPKPEKKDGVSFCAEH [H5P]", -0.146],
  ["CAFTHRPCSHPRLEGQEFCIKNILEDKNAPFKQCSYISTKNGKRCPNAAPKPEKKDGVSFCAEH [H22N]", -0.768],
  ["CAFTHRPCSHPRLEGQEFCIKHILEDKNAPFKQCSLISTKNGKRCPNAAPKPEKKDGVSFCAEH [Y36L]", -0.156],
  ["CAFTHRPCSHPRLEGQEFCIKHILEDKNAPFKQCSYISTFNGKRCPNAAPKPEKKDGVSFCAEH [K40F]", -0.037],
  ["CAFTHRPCSHPRLEGQEFCIKHILEDKNAPFTQCSYISTKNGKRCPNAAPKPEKKDGVSFCAEH [K32T]", -0.177],
  ["CAFTHRPCSHPRLSGQEFCIKHILEDKNAPFKQCSYISTKNGKRCPNAAPKPEKKDGVSFCAEH [E14S]", -0.147],
  ["CANTHRPCSHPRLEGQEFCIKHILEDKNAPFKQCSYISTKNGKRCPNAAPKPEKKDGVSFCAEH [F3N]", -0.312],
  ["CAFTHKPCSHPRLEGQEFCIKHILEDKNAPFKQCSYISTKNGKRCPNAAPKPEKKDGVSFCAEH [R6K]", -0.032],
  ["CAFTHRPCSHPRDEGQEFCIKHILEDKNAPFKQCSYISTKNGKRCPNAAPKPEKKDGVSFCAEH [L13D]", -0.501],
  ["CAFTHRPCSMPRLEGQEFCIKHILEDKNAPFKQCSYISTKNGKRCPNAAPKPEKKDGVSFCAEH [H10M]", -0.047],
  ["CAYTHRPCSHPRLEGQEFCIKHILEDKNAPFKQCSYISTKNGKRCPNAAPKPEKKDGVSFCAEH [F3Y]", -0.151],
  ["CAFTHRPCSPPRLEGQEFCIKHILEDKNAPFKQCSYISTKNGKRCPNAAPKPEKKDGVSFCAEH [H10P]", -1.12],
  ["CAFTHRPCSHPRLEGQEFCIKHILEDKNAPFKQCSYISTKNGKRCPNAAPVPEKKDGVSFCAEH [K51V]", -0.035],
  ["CAFTHRPCCHPRLEGQEFCIKHILEDKNAPFKQCSYISTKNGKRCPNAAPKPEKKDGVSFCAEH [S9C]", -0.123],
  ["CAFTLRPCSHPRLEGQEFCIKHILEDKNAPFKQCSYISTKNGKRCPNAAPKPEKKDGVSFCAEH [H5L]", -0.068],
  ["CAFTHRPCSHPRLEGQEFCIKHILEDKNAPFKQCSYISTKNGKRCPNAAPKPEKKDGVPFCAEH [S59P]", -0.141],
  ["YAFTHRPCSHPRLEGQEFCIKHILEDKNAPFKQCSYISTKNGKRCPNAAPKPEKKDGVSFCAEH [C1Y]", -0.802],
  ["CAFTHRPCSHPRLEGQEFCIKHILEDKNAPFKQCSYISTKNGKRCPNAYPKPEKKDGVSFCAEH [A49Y]", -0.261],
  ["CAFTHRPCSHPRLEGQEFCIKHILEDKNAGFKQCSYISTKNGKRCPNAAPKPEKKDGVSFCAEH [P30G]", -0.074],
  ["CAFTHRPCSHPRLEGQEFCIKHILEDKNAPFFQCSYISTKNGKRCPNAAPKPEKKDGVSFCAEH [K32F]", -0.305],
  ["CAFTHRPCSHPRLEGQEFCIKHILEDKNAPFKQCSYISTKNGKRCPNAAPKPEKKDGDSFCAEH [V58D]", 0.009],
  ["CAFTHRPCSHPRLEGQEFCIKHILEDKNAPFKQASYISTKNGKRCPNAAPKPEKKDGVSFCAEH [C34A]", -0.446],
  ["NAFTHRPCSHPRLEGQEFCIKHILEDKNAPFKQCSYISTKNGKRCPNAAPKPEKKDGVSFCAEH [C1N]", -0.615],
  ["CAKTHRPCSHPRLEGQEFCIKHILEDKNAPFKQCSYISTKNGKRCPNAAPKPEKKDGVSFCAEH [F3K]", -0.287],
  ["CAFTHRPCSHPRLEGQEFCIKHILEDKNAPFKQCSYISTKNGKRCPNAAPKPEKKDGVSFCAEL [H64L]", -0.602],
  ["CAFTHRPCSHPRLEGQEFCIKHILEDKNAVFKQCSYISTKNGKRCPNAAPKPEKKDGVSFCAEH [P30V]", -0.256],
  ["CAFTHRPCSHPRLEGQEFCIKHILEDKNAPFKQCSYISTKNGKRCPNAAPKPEKKDGVSFCAPH [E63P]", -0.188],
  ["CAFTHRPCSHPRLEGQEFCIKHILEDKNAPFKQCSYISTKNGKRGPNAAPKPEKKDGVSFCAEH [C45G]", -0.427],
  ["CAFTHRPCSHPRLEGQEFCIKHILEDKNAPFKQHSYISTKNGKRCPNAAPKPEKKDGVSFCAEH [C34H]", -0.453],
  ["CAFTHRPCSHPRLEGQEFCIKHILEDKNAPFKQCSYISTKNGPRCPNAAPKPEKKDGVSFCAEH [K43P]", -0.072],
  ["CAFTHRPCSHPRLEGQEFCIKHILEDKNAPFKQCSYISTKNGKRCPMAAPKPEKKDGVSFCAEH [N47M]", -0.074]
]}
